All values here come from patent US9266908B2.

Target sequence: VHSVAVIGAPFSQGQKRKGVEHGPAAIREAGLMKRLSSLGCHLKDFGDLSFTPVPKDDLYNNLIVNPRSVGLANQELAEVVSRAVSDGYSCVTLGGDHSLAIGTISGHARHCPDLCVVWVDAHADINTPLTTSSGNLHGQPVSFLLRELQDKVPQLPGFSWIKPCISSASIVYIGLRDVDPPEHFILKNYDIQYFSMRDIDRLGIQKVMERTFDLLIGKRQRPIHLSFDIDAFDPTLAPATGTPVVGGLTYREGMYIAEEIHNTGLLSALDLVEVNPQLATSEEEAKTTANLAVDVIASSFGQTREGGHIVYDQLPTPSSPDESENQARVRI
pIC50: −log10 of the molar value.
Each item that follows carries a reported pIC50.

Answered examples (3):
CNC(CCCCB(O)O)(CCNCc1ccc(Cl)c(Cl)c1)C(=O)O (centres unmarked) = 6.30 to 7.00
NC(CCCCB(O)O)(C(=O)O)[C@H]1C[C@@H](NCc2ccc(-c3ccc(F)cc3)c(F)c2)C1 (mixture of isomers) = 7.00 to 7.59
CCCN(C)CC[C@](N)(CCCCB(O)O)C(=O)O = 6.30 to 7.00

We next turn to a different molecule, shown below.
Which pIC50 is reported for this molecule? CNC(CCCCB(O)O)(CCN1Cc2ccccc2C1)C(=O)O (centres unmarked)
6.30 to 7.00

* * *

Molecular target: arginase II (ARG II) (Homo sapiens, UniProt P78540)
Sequence (P78540 23-354): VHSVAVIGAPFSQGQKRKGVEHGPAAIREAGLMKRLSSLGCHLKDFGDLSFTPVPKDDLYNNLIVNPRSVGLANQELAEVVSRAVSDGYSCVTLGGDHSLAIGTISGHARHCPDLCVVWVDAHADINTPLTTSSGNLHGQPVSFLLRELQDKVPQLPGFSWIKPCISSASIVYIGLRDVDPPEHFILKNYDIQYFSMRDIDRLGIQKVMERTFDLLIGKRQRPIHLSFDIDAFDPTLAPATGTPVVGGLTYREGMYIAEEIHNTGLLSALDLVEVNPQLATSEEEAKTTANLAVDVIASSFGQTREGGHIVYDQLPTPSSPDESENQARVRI
Measured IC50, listed per entry for reference.

NC1(Cc2ccc(Cl)cc2)CC(C(N)(CCCCB(O)O)C(=O)O)C1 (stereo not shown) = 101 to 500 nM
NC(CCCCB(O)O)(C(=O)O)[C@H]1C[C@@H](NCc2ccc(-c3ccc(F)cc3)cc2)C1 (stereo partly shown) = 26 to 100 nM
NC(CCCCB(O)O)(C(=O)O)[C@H]1C[C@@H](NC2CCC(c3ccccc3)CC2)C1 (mixture of isomers) = 0.1 to 25 nM
NC(CCCCB(O)O)(C(=O)O)[C@H]1C[C@@H](NCCCc2ccc(C(F)(F)F)cc2)C1 (stereo partly shown) = 26 to 100 nM
NC(CCCCB(O)O)(C(=O)O)C1CC2CCC(C1)N2Cc1ccc(F)c(F)c1 (stereo not shown) = 26 to 100 nM
NC(CCCCB(O)O)(C(=O)O)[C@H]1C[C@H](N(Cc2ccccc2)Cc2ccccc2)C1 (relative stereo) = > 1500 nM
NC(CCCCB(O)O)(C(=O)O)[C@H]1C[C@@H](NCc2ccc(Cc3ccccc3)cc2)C1 (mixture of isomers) = 26 to 100 nM
NC(CCCCB(O)O)(C(=O)O)[C@H]1C[C@@H](NCc2ccccc2-c2ccc(C(F)(F)F)cc2)C1 (stereo partly shown) = 26 to 100 nM

# get_value(readout= IC50, system= arginase II (ARG II) (Homo sapiens, UniProt P78540)) for NC(CCCCB(O)O)(C(=O)O)[C@H]1C[C@@H](NCC2CCN(c3ccc(C(F)(F)F)cc3)CC2)C1 (mixture of isomers)
26 to 100 nM

# iterate: CNC(CCCCB(O)O)(CCN1CCC(c2ccc(Cl)cc2)CC1)C(=O)O (stereo not shown)
101 to 500 nM

# repeat for NC(CCCCB(O)O)(C(=O)O)[C@H]1C[C@@H](NCc2cccc(-c3ccccc3)c2F)C1 (mixture of isomers)
0.1 to 25 nM

And what about the molecule `CCN(CC)CC[C@](N)(CCCCB(O)O)C(=O)O` ?
101 to 500 nM
